All figures here come from PubChem BioAssay (EPA / NIEHS).

- Read-out: Paternally Expressed 10 (PEG10), PEG10 (gene 23089)
- assay procedure: LTEA_HepaRG_PEG10: Life Technologies and Expression Analysis (LTEA) Assay for Paternally Expressed 10 (PEG10) using HepaRG (AID 2283520)
- measurement conditions: mRNA level, 48 h; actives raise or lower the signal
Active and inactive are the calls of the source. How the source made its calls: active means hit-call score of the fitted dose curve at least 0.9, where 1 is the maximum; inactive means score below 0.9.
Labels: active, inactive

> print(dat)
                                   compound     label
1        COP(=S)(OC)Oc1ccc([N+](=O)[O-])cc1  inactive
2  CC(C)N(C(=O)COc1nnc(C(F)(F)F)s1)c1ccc(F)cc1    active
3                    O=C(Nc1ccccc1)Nc1cnns1    active
4  O=S(=O)(O)C(F)(F)C(F)(F)C(F)(F)C(F)(F)C(F)(F)C(F)(F)C(F)(F)C(F)(F)F  inactive
5  O=C(NC(=O)c1c(F)cccc1F)Nc1ccc(OC(F)(F)C(F)OC(F)(F)F)c(Cl)c1 (stereo unspecified)  inactive
6                CNC(=O)Oc1cccc(N=CN(C)C)c1  inactive
